B1: Zinc finger MYM-type protein 6, residues 427 to 504; numbered along this chain, O95789 (parent)
chain: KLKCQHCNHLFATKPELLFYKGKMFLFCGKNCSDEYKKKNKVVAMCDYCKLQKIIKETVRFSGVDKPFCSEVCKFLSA

variants of: B1; experiment: abundance fitness (aPCA) (normalised: wild type 0, dead -1); higher = more abundant; growth selection in yeast, the domain comes from the species named; conditions: Homo sapiens
We begin with a simple list: items and their reported abundance fitness.
EXPERIMENTAL_ENDPOINT: abundance fitness

>>> print(df.to_string())
    mutations  test_value
 0       F25L       0.043
 1       K39C      -0.163
 2       F68E      -0.278
 3       Y48H       0.537
 4       F75I        0.02
 5       V64K      -0.298
 6       C49A      -0.604
 7       V43G      -0.224
 8       F68M       0.263
 9       K56W       -0.16
10       M45K      -0.237
11       K53A      -0.126
12       K30L      -0.061
13       K23F       -0.15
14       C69A       -1.23
15       C28M      -0.752
16       F68T      -0.555
17       N40R      -0.045
18       K38G      -0.026
19       D34P      -0.691
20       K50N       -0.23
21       V59Q      -0.416
22       S62D       0.914
23       L26Q       0.166
24       K56R      -0.423
25       S33W      -0.114
26       V64W      -0.765
27       I55M       0.211
28       K56E       -0.49
29       V64S      -0.107
30       V59T       0.204
31       C28V        -1.1
32       Y36H      -0.005
33       I54R       0.157
34       F27S      -0.459
35       E35R      -0.021
36       K30I       0.021
37       R60Y      -0.423
38       A44T      -0.629
39       G29L      -0.345
40       K37A       0.004
41       L76C       0.183
42       Y48L      -0.496
43       K30G      -0.032
44       C28H      -0.608
45       K39T      -0.058
46       D47R      -0.394
47       M24T       0.118
48       A78R      -0.142
49       M45H      -0.345
50       K23Q      -0.097
51       Q52R       0.061
52       L26S       0.054
53       L76H       0.095
54       K56V      -0.071
55       D65V      -0.232
56       L76R       0.209
57       E57C       0.163
58       C46K       0.241
59       S62P      -0.325
60       S62C      -0.072
61       C69W       -0.71
62       G63Q      -0.191
63       I55R      -0.055
64       C73A      -0.627
65       P67Q       0.296
66       T58D       0.779
67       V64A      -0.302
68       V72C       0.553
69       Y36T      -0.169
70       A44Q       0.054
71       K53W      -0.313
72       S33R      -0.061
73       E71Y       -0.28
74       K56C      -0.658
75       V43W      -0.416
76       K37V      -0.029
77       K38D      -0.114
78       K56M       0.511
79       E57Q      -0.289
80       C73E      -0.885
81       Q52E       0.446
82       C28G      -0.866
